# credit: patent US20260242478A1

# assayedTarget: T1, Anti-PSMA Fab
# T1 construct: also called 006 PSMA Fab
# assayNotes: clonal phage ELISA; biotinylated PSMA Fab on neutravidin plate, wells pre-incubated with PSMA antigen as competitor; anti-M13 HRP detection;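 further: crude clonal phage supernatants added to antigen-treated wells without a wash, incubated briefly, then bound phage read out via horse radish–conjugated anti-M13 antibody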
Binary label based on Phage binding ELISA signal, Anti-PSMA Fab in presence of PSMA with cut-off 0.09: below gives class 1, not below gives class 0.

Dear reviewer, please state whether VVVQCVPKWMCYGF [Phage-3688] has Phage binding ELISA signal, Anti-PSMA Fab in presence of PSMA strictly beneath 0.09.
class 1

Next binder up: DVPYCIPSWMCHGF [Phage-3698]
class 0

Next binder up: ALSMCVPQWMCQGF [Phage-3690]
class 1

Next binder up: YLHECRPEWMCVGF [Phage-3699]
class 0

Next binder up: TMQMCKPAWMCSQL [Phage-3696]
class 1

Next binder up: LPHACKPSWMCQGF [Phage-3689]
class 1

Next binder up: DHMMCVPPWMCDGI [Phage-3692]
class 0

Next binder up: VNERCIPDWMCVGF [Phage-3691]
class 1

Next binder up: SEHYCVPNWMCAGL [Phage-3693]
class 0

Next binder up: MIAMCKPPWMCIGL [Phage-3687]
class 0

Next binder up: SQHSCIPSWMCNGF [Phage-3695]
class 0

Next binder up: NEKLCVPTWMCDGL [Phage-3697]
class 1

Next binder up: GLPYCVPSWMCDGF [Phage-3700]
class 1
